assay: Saturated solubility of DOX in PBS
Assay type: physicochemical
test parameters: phosphate-buffered saline (PBS), pH 7.2, aqueous buffer
result type: solubility (µg/mL)

>>> df
                              line_notation  result_type  reported_value
0  COc1cccc2c1C(=O)c1c(O)c3c(c(O)c1C2=O)C[C@@](O)(C(=O)CO)C[C@@H]3O[C@H]1C[C@H](N)[C@H](O)[C@H](C)O1   solubility              76
